Each item that follows carries a reported %Inh.
System: PKN1
Conditions: concentration: 1 μM, replicates: in singlicate; n = 1;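 also: KINOMEscan kinase panel screen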
quantity: %Inh (%)

* COc1cc2ncnc(Nc3ccc4nc(-c5ccccc5)[nH]c4c3)c2cc1OC.Cl [GW282450] | 0
* Cc1cc(NCC(c2ccccc2)c2ccccc2)nc(NCc2ccc(C(F)(F)F)cc2)n1 [GW497681] | 0
* COC(=O)c1c(-c2ccccc2)c2cc(C(=O)O)ccc2c(=O)n1Cc1ccccc1 | 0
* Cc1c(O)cccc1Nc1ccnc2ccc(C(F)(F)F)cc12.Cl [GW466413] | 0
* Cc1cccc(-c2nc(Nc3ccncc3)c3ccccc3n2)n1 [GW855857] | 0
* O=C(Nc1ccccc1)Nc1cccc(Oc2ccc3nccn3n2)c1 | 0
* O=C(O)COc1ncnc2cc(-c3ccc4[nH]ncc4c3)sc12 | 30
* COc1cc2nccc(Nc3ccc(NC(=O)c4ccc(C)cc4)c(O)c3)c2cc1OC.Cl [GW440132] | 0
* Fc1cc(Cl)ccc1Nc1ccnc2cc(I)ccc12 [GW551191] | 17

* * *

System: FES
Details: concentration: 1 μM, replicates: in singlicate; n = 1
# %Inh per entry
quantity: %Inh (%)

- CCCc1ccc(S(=O)(=O)NC2CCN(c3ccnc(Nc4ccc(F)cc4)n3)C2)cc1 (stereo not shown): 0
- CS(=O)(=O)c1ccc(-c2nc3n(c2-c2ccncc2)CCC3)cc1: 22
- COc1ccccc1-c1ccc2c(NC(=O)C3CC3)n[nH]c2n1: 22
- CC(C)(C)c1ccc(C(=O)Nc2cn3cc(-c4cccnc4)ccc3n2)cc1: 29
- Cc1c(O)cccc1Nc1ccnc2ccc(C(F)(F)F)cc12.Cl: 0
- Cc1ccccc1-n1cnc2c(N)ncnc21: 0
- O=C(Nc1n[nH]c2nc(-c3nccs3)c(Br)cc12)C1CCCC1: 0
- COC(=O)c1c(-c2ccccc2)c2cc(C(=O)O)ccc2c(=O)n1Cc1ccccc1: 0
- COc1ccc(Nc2nccc(-c3cccc(NC(=O)c4cc5cc(F)ccc5[nH]4)c3)n2)cc1: 27
- COc1cc(Nc2nccc(N3CCC(NC(=O)Nc4cc(C)ccc4C)C3)n2)cc(OC)c1OC (stereo not shown): 0
- CSc1nn2c(=O)cc(N3CCOCC3)nc2n1Cc1cccc(C(F)(F)F)c1C: 0
- Fc1cc(Cl)ccc1Nc1ccnc2cc(-c3ccc(CN4CCCCC4)o3)ccc12: 0
- COc1cccc(NC(=O)NC2CCN(c3ccnc(Nc4ccc(F)cc4)n3)C2)c1 (stereo not shown): 0
- NC(=O)c1nnc2ccccc2c1N: 4
- Fc1cc(Cl)ccc1Nc1ccnc2cc(I)ccc12: 0
- Cc1cc(NCC(c2ccccc2)c2ccccc2)nc(NCc2ccc(C(F)(F)F)cc2)n1: 0
- Cc1cc(-c2ccc3c(c2)CC[C@@H](N[C@@H](C)c2ccccc2)C3)cnc1N.Cl: 0
- O=C1NC(=O)C(N2CCc3ccccc32)=C1c1ccccc1Cl: 15
- O=C(Nc1ccc2c(c1)OCO2)NC1CCN(c2ccnc(Nc3ccc(F)cc3)n2)C1 (stereo not shown): 15
- CS(=O)(=O)c1ccc(-c2c(-c3ncn[nH]3)sc(N3CCOCC3)c2C#N)cc1: 42
- Cc1ccc(NC(=O)Nc2cc(C(C)(C)C)nn2-c2ccccc2)cc1: 0
- O=c1cc(N2CCOCC2)nc2n(Cc3cccc(Cl)c3Cl)ccn12: 12
- COc1ccc(Nc2nccc(NCCNC(=O)Nc3ccccc3F)n2)cc1: 26
- COc1ccc(C2=C(Nc3cccc(C(=O)O)c3)C(=O)NC2=O)cc1: 21
- CC(=O)Nc1nc2cnc(Nc3cc(NC(=O)c4cccc(CCC#N)c4)ccc3C)nc2s1: 17
